# reported IC50; entries follow
- System: EW-24;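 note: human EW-24 cancer cell line, growth inhibition read out via a cell viability assay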
- assay-info: cells
- Format: functional, cell-based, Homo sapiens
- conditions-used: Homo sapiens, EW-24
- Description: SANGER: Inhibition of human EW-24 cell growth in a cell viability assay.

Previously resolved entries follow.
1) O=S(=O)(O)c1ccc2cc(/N=N/c3cc(S(=O)(=O)O)c4cccnc4c3O)ccc2c1	> 16 µM
2) Cc1cc(N2CCOCC2)cc2[nH]c(-c3c(NC[C@@H](O)c4cccc(Cl)c4)cc[nH]c3=O)nc12	> 5.12 µM
3) C[C@@H](Oc1cc(-c2cnn(C3CCNCC3)c2)cnc1N)c1c(Cl)ccc(F)c1Cl	> 2 µM

Query :: Entry under review: "Nc1ccccc1NC(=O)c1ccc(CNC(=O)OCc2cccnc2)cc1" . Reported IC50?
Result :: > 5 µM

Query :: Query "CC1=C(/C=C/C(C)=C/C=C/C(C)=C/C(=O)O)C(C)(C)CCC1" next
Result :: > 10 µM

====

- System: MFM-223
- assay-info: cells
- Format: functional, cell-based, Homo sapiens
- conditions-used: Homo sapiens, MFM-223
- Description: SANGER: Inhibition of human MFM-223 cell growth in a cell viability assay.
pIC50: −log10 of the molar value.
# reported pIC50; entries follow

Previously resolved entries follow.
1) CN(NC(=O)CC(=O)NN(C)C(=S)c1ccccc1)C(=S)c1ccccc1 [ELESCLOMOL]	7.34
2) O=C1NC(=O)c2c1c(-c1ccccc1Cl)cc1[nH]c3ccc(O)cc3c21	< 5.70
3) NC(=O)c1ccc(N(C(N)=O)c2c(F)cccc2F)nc1-c1ccc(F)cc1F [VX-702]	< 5.70

Query :: Entry under review: Cc1ccc(C(=O)Nc2ccc(CN3CCN(C)CC3)c(C(F)(F)F)c2)cc1C#Cc1cnc2cccnn12 [PONATINIB] . Reported pIC50?
Result :: < 6.29

Query :: Query COc1cc(N2CCC(N3CCN(C)CC3)CC2)ccc1Nc1ncc(Cl)c(Nc2ccccc2S(=O)(=O)C(C)C)n1 [TAE-684] next
Result :: < 5.70

Query :: Query "COC(=O)[C@H](CCSC)NC(=O)c1ccc(NC[C@@H](N)CS)cc1-c1ccccc1" next
Result :: < 5.99

Query :: Query CCCCCCCCCCCC1=C(O)C(=O)C=C(O)C1=O [EMBELIN] next
Result :: < 4.49

Query :: Query NC1(c2ccc(-c3nc4ccn5c(=O)[nH]nc5c4cc3-c3ccccc3)cc2)CCC1 [MK-2206] next
Result :: 5.87

Query :: Query NC(=O)Nc1cc(-c2cccc(F)c2)sc1C(=O)N[C@H]1CCCNC1 [AZD-7762] next
Result :: 5.91

Query :: Query C/C(=C\c1csc(C)n1)[C@@H]1C[C@@H]2O[C@]2(C)CCC[C@H](C)[C@H](O)[C@@H](C)C(=O)C(C)(C)[C@@H](O)CC(=O)O1 [PATUPILONE] next
Result :: < 7.49

Query :: Query Cc1ccc(NC(=O)c2ccc(CN3CCN(C)CC3)cc2)cc1Nc1nccc(-c2cccnc2)n1 [IMATINIB] next
Result :: < 5.70

====

- System: DG-75;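 note: growth inhibition of DG-75 cells, read out with a cell viability assay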
- assay-info: cells
- Format: functional, cell-based, Homo sapiens
- conditions-used: Homo sapiens, DG-75
- Description: SANGER: Inhibition of human DG-75 cell growth in a cell viability assay.
measured-quantity: IC50

Previously resolved entries follow.
1. OC[C@H](Cc1ccccc1)Nc1nc(Oc2ccc3c(c2)CCC3)nc2c1ncn2Cc1ccc(-c2ccccc2)cc1	> 10.2 µM
2. C/C(=C\c1csc(C)n1)[C@@H]1C[C@@H]2O[C@]2(C)CCC[C@H](C)[C@H](O)[C@@H](C)C(=O)C(C)(C)[C@@H](O)CC(=O)O1 [PATUPILONE]	> 0.032 µM

Query :: Entry under review: COc1cc(N2CCC(N3CCN(C)CC3)CC2)ccc1Nc1ncc(Cl)c(Nc2ccccc2S(=O)(=O)C(C)C)n1 [TAE-684] . Reported IC50?
Result :: > 2 µM

Query :: Query CCCCCCCCCCCC1=C(O)C(=O)C=C(O)C1=O [EMBELIN] next
Result :: > 32 µM

Query :: Query "Cc1cc(N2CCOCC2)cc2[nH]c(-c3c(NC[C@@H](O)c4cccc(Cl)c4)cc[nH]c3=O)nc12" next
Result :: > 5.12 µM

Query :: Query "NC(=O)c1cccc(-c2cc(Nc3ccc(OC(F)(F)F)cc3)ncn2)c1" next
Result :: > 1.28 µM

====

- Test system: SK-NEP-1;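 note: growth inhibition of human SK-NEP-1 cells, read out by a cell viability assay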
- assay-info: cells
- Type: functional, cell-based, Homo sapiens
- conditions-used: Homo sapiens, SK-NEP-1
- Description: SANGER: Inhibition of human SK-NEP-1 cell growth in a cell viability assay.
measured-quantity: IC50 (nM)
Reply with just the number (in nM).

Previously resolved entries follow.
1) CS(=O)(=O)N1CCN(Cc2cc3nc(-c4cccc5[nH]ncc45)nc(N4CCOCC4)c3s2)CC1 [PICTILISIB]	726
2) COc1ccc(-c2cc3nccn3c(Nc3ncccc3C(N)=O)n2)cc1OC	4530
3) C/C(=C\c1csc(C)n1)[C@@H]1C[C@@H]2O[C@]2(C)CCC[C@H](C)[C@H](O)[C@@H](C)C(=O)C(C)(C)[C@@H](O)CC(=O)O1 [PATUPILONE]	10

Query :: Entry under review: Nc1ccccc1NC(=O)c1ccc(CNC(=O)OCc2cccnc2)cc1 [ENTINOSTAT] . Reported IC50?
Result :: 1200

Query :: Query NC(=O)Nc1cc(-c2cccc(F)c2)sc1C(=O)N[C@H]1CCCNC1 [AZD-7762] next
Result :: 464

Query :: Query CC(C)C[C@H](NC(=O)[C@H](Cc1ccccc1)NC(=O)c1cnccn1)B(O)O [BORTEZOMIB] next
Result :: 9.01

Query :: Query COc1cc(N2CCC(N3CCN(C)CC3)CC2)ccc1Nc1ncc(Cl)c(Nc2ccccc2S(=O)(=O)C(C)C)n1 [TAE-684] next
Result :: 235

====

- Tested on: Panc1005;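 note: growth inhibition of human PANC-10-05 cells, measured by a cell viability assay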
- assay-info: cells
- Assay type: functional, cell-based
- conditions-used: Homo sapiens
- Description: SANGER: Inhibition of human PANC-10-05 cell growth in a cell viability assay.
measured-quantity: IC50

Previously resolved entries follow.
1. CC1(C)CCC(c2ccc(Cl)cc2)=C(CN2CCN(c3ccc(C(=O)NS(=O)(=O)c4ccc(N[C@H](CCN5CCOCC5)CSc5ccccc5)c(S(=O)(=O)C(F)(F)F)c4)cc3)CC2)C1 [NAVITOCLAX]	> 2000 nM
2. CS(=O)(=O)N1CCN(Cc2cc3nc(-c4cccc5[nH]ncc45)nc(N4CCOCC4)c3s2)CC1 [PICTILISIB]	> 4000 nM
3. CN(NC(=O)CC(=O)NN(C)C(=S)c1ccccc1)C(=S)c1ccccc1 [ELESCLOMOL]	110 nM
4. NC(=O)Nc1cc(-c2cccc(F)c2)sc1C(=O)N[C@H]1CCCNC1 [AZD-7762]	> 2000 nM

Query :: Entry under review: O=C(NCCCNc1nc(Nc2cccc(NC(=O)N3CCCC3)c2)ncc1I)c1cccs1 [BX-795] . Reported IC50?
Result :: > 5000 nM

====

- Test system: LB1047-RCC;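 note: inhibition of cell growth, determined with a cell viability assay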
- assay-info: cells
- Assay type: functional, cell-based, Homo sapiens
- conditions-used: Homo sapiens, LB1047-RCC
- Description: SANGER: Inhibition of human LB1047-RCC cell growth in a cell viability assay.
pIC50: −log10 of the molar value. Where a SMILES comes first, the peptide text is derived from it. The star is where a group is joined. Cbz = O=C(OCc1ccccc1)*
Please enter label 1 where pIC50 is greater than or equal to 6, and label 0 where it is lower.

Example cases with answers are listed next.
1) COc1ccc(N(C(=O)Oc2c(C)cccc2C)c2ccnc(Nc3ccc(N4CCN(C)CC4)cc3)n2)c(OC)c1	label 1
2) NC(=O)c1cccc(-c2cc(Nc3ccc(OC(F)(F)F)cc3)ncn2)c1	label 0
3) CCCCCCCCCCCC1=C(O)C(=O)C=C(O)C1=O [EMBELIN]	label 0

Query :: Given "Cc1cc(N2CCOCC2)cc2[nH]c(-c3c(NC[C@@H](O)c4cccc(Cl)c4)cc[nH]c3=O)nc12" , state whether its pIC50 is at least 6.
Result :: label 1

Query :: Query "OC[C@H](Cc1ccccc1)Nc1nc(Oc2ccc3c(c2)CCC3)nc2c1ncn2Cc1ccc(-c2ccccc2)cc1" next
Result :: label 0

Query :: Query COc1cc(N2CCC(N3CCN(C)CC3)CC2)ccc1Nc1ncc(Cl)c(Nc2ccccc2S(=O)(=O)C(C)C)n1 [TAE-684] next
Result :: label 1

Query :: Query CC(C)C[C@@H](C=O)NC(=O)[C@H](CC(C)C)NC(=O)[C@H](CC(C)C)NC(=O)OCc1ccccc1 [MG-132] (Cbz-Leu-Leu-Leu-aldehyde) next
Result :: label 0

====

- Test system: KYSE-70 cell line;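 note: cell viability assay read-out, with IC50 expressing suppression of KYSE-70 cell growth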
- assay-info: cells
- Type: functional, cell-based
- conditions-used: Homo sapiens
- Description: SANGER: Inhibition of human KYSE-70 cell growth in a cell viability assay.
# reported IC50; entries follow

Previously resolved entries follow.
1. O=C(NCCCNc1nc(Nc2cccc(NC(=O)N3CCCC3)c2)ncc1I)c1cccs1 [BX-795]	> 5 µM
2. Cc1ccc(-n2nc(C(C)(C)C)cc2NC(=O)Nc2ccc(OCCN3CCOCC3)c3ccccc23)cc1 [DORAMAPIMOD]	> 10 µM
3. CC1=C(/C=C/C(C)=C/C=C/C(C)=C/C(=O)O)C(C)(C)CCC1 [TRETINOIN]	> 10 µM
4. CCCCCCCCCCCC1=C(O)C(=O)C=C(O)C1=O [EMBELIN]	15.1 µM

Query :: Entry under review: "OC[C@H](Cc1ccccc1)Nc1nc(Oc2ccc3c(c2)CCC3)nc2c1ncn2Cc1ccc(-c2ccccc2)cc1" . Reported IC50?
Result :: > 10.2 µM
